Conditions: 313.15 K; 10000 kPa; Liquid
METRIC_NAME: mass density (kg/m3)

CCCOC(C)=O [propyl ethanoate] ... 874.7
CCOC(C)=O [ethyl acetate] ... 885.8
CCCCCOC(C)=O [pentyl ethanoate] ... 865.2
CCCCOC(C)=O [butyl ethanoate] ... 869

---

Conditions: 388.15 K; 3000 kPa; Liquid
METRIC_NAME: mass density (kg/m3)

CCCCOC(C)=O [butyl ethanoate] ... 785.2
CCCOC(C)=O [propyl ethanoate] ... 781.6
CCOC(C)=O [ethyl acetate] ... 782.7
CCCCCOC(C)=O [pentyl ethanoate] ... 786.5

Where do these numbers come from? They come from the NIST ThermoML archive (doi:10.1021/je060339m).
